Measured Target: DNA polymerase III PolC-type (Staphylococcus aureus)
Sequence (whole entry): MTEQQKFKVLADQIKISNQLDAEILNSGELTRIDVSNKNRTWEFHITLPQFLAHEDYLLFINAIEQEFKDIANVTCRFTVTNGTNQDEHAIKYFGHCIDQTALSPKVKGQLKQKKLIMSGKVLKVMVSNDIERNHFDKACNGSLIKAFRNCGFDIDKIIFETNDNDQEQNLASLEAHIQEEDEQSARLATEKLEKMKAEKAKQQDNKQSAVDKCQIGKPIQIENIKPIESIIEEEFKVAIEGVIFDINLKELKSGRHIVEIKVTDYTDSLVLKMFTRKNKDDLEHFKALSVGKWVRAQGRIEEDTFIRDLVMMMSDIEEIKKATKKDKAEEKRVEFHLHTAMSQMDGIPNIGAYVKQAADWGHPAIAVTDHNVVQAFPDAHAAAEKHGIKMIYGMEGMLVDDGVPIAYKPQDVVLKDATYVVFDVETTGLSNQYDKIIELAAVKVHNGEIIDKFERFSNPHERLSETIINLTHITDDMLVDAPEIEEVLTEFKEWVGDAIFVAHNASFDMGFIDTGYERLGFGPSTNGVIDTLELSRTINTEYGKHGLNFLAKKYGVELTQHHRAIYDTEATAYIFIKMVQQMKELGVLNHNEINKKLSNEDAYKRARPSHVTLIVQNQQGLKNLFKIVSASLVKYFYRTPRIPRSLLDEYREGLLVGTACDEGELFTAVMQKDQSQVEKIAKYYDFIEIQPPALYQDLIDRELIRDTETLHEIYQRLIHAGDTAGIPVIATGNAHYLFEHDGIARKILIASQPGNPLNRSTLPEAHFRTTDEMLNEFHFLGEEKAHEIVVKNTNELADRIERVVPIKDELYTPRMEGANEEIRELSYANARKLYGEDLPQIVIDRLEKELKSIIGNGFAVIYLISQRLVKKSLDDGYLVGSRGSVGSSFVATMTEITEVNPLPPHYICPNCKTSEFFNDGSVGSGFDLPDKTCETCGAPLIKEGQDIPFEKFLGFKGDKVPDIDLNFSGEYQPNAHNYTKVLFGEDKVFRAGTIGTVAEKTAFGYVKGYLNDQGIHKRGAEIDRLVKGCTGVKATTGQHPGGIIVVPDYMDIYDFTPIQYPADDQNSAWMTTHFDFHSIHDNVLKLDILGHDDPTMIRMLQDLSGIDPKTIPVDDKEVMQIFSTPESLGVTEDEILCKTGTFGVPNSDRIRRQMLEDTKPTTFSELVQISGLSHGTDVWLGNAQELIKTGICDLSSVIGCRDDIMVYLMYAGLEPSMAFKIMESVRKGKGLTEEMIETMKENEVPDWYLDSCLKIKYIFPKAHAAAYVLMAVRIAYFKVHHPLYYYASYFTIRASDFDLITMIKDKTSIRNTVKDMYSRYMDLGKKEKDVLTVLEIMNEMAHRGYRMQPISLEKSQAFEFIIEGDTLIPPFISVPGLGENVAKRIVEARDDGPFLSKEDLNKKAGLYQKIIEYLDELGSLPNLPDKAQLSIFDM
Experiment: Inhibition of DNA polymerase3C from Staphylococcus aureus at 100 uM
Outcome Measure: inhibition (%)

Please review the following examples before continuing.
| Record Smiles | inhibition [%] |
| --- | --- |
| CCc1cc(Nc2nc(O)c(CCCc3ccc(C#N)cc3OC)c(O)n2)ccc1C | 81 |
| Oc1nc(Nc2ccc3c(c2)CCC3)nc(O)c1CCCOc1ccccc1 | 74 |
| C=CCc1c(O)nc(Nc2ccc3c(c2)CCC3)nc1OC | 33 |
| C=CCCc1c(O)nc(Nc2ccc3c(c2)CCC3)nc1O | 87 |
| COC(=O)c1ccc(OCCCc2c(O)nc(Nc3ccc4c(c3)CCC4)nc2O)cc1 | 74 |
| OCCCc1c(O)nc(Nc2ccc3c(c2)CCC3)nc1O | 74 |

1 = C=CCCCCc1c(O)nc(Nc2ccc3c(c2)CCC3)nc1O
2 = CCc1cc(Nc2nc(N)c(CCCc3ccccc3)c(O)n2)ccc1C
Prompt: Response body: label of entry with the larger inhibition; valid values 1 , 2 . Answer by quoting the chosen item's label.
Response: 1

Data provenance: ChEMBL document CHEMBL1138107
